# SYSTEM_TESTED: Cannabinoid receptor 1 (Homo sapiens)
# ASSAY_INFO: Binding affinity to human CB1 receptor
Measured Ki accompanies every entry in the list below.
Report the value in µM with no unit label.

CCCCCCC(C)(C)c1cc(O)c2c(c1)OC(C)(C)[C@@H]1CC=C(C(=O)O)C[C@@H]21; 0.0323
CCCCCCC(C)(C)c1cc(O)c2c(c1)OC(C)(C)[C@@H]1CC=C(CO)C[C@@H]21; 0.00073

Next, consider the following molecule.
Exercise: Assign Ki to the following record: `CCCCCCC(C)(C)c1cc(O)c([C@H]2CC(=O)[C@H]3C[C@@H]2C3(C)C)c(OC(=O)/C=C/C(=O)O)c1`
Solution: 0.334

----------
# SYSTEM_TESTED: Cannabinoid receptor 2 (Homo sapiens, UniProt P34972)
# Sequence (P34972 whole entry): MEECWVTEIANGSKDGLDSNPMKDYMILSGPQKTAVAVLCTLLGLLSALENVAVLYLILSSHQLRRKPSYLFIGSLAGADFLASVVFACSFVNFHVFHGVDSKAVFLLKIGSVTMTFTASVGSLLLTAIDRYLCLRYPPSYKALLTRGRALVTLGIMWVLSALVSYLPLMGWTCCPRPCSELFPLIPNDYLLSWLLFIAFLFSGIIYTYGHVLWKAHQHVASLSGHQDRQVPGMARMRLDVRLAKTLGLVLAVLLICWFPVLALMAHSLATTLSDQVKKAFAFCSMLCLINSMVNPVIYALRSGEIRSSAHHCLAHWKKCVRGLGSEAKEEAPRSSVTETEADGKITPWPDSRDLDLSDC
# ASSAY_INFO: Agonist activity at human CB2 receptor assessed as inhibition of forskolin-induced cAMP production preincubated for 15 mins followed by forskolin challenge measured after 30 mins by HTRF assay
# Type: functional
PROPERTY_MEASURED: Ki

Exercise: Assign Ki to the following record: `Clc1ccc(-c2nc(N3CCCCC3)c3ccccc3n2)c(Cl)c1`
Solution: < 1 µM

----------
# SYSTEM_TESTED: Cannabinoid receptor 1 (Homo sapiens)
# ASSAY_INFO: Agonist activity at CB1 receptor (unknown origin)
PROPERTY_MEASURED: Ki (µM)
Report the value in µM with no unit label.

Exercise: Assign Ki to the following record: `CCc1c(C)cc(C(=O)NC2(C(=O)O)CCCCC2)c(=O)n1Cc1ccc(F)cc1`
Solution: 4.6

----------
# SYSTEM_TESTED: Cannabinoid receptor 2 (Homo sapiens, UniProt P34972)
# ASSAY_INFO: Agonist activity at human CB2 receptor assessed as inhibition of forskolin-induced cAMP production
# Type: functional
PROPERTY_MEASURED: EC50 (nM)
Report the value in nM with no unit label.

Exercise: Assign EC50 to the following record: `O=C(NC12CC3CC(CC(C3)C1)C2)c1nn(-c2ccc(Cl)c(Cl)c2)c2c1CCCC2`
Solution: 2.5

----------
# SYSTEM_TESTED: Cannabinoid receptor 1 (Homo sapiens, UniProt P21554)
# Sequence (P21554 whole entry): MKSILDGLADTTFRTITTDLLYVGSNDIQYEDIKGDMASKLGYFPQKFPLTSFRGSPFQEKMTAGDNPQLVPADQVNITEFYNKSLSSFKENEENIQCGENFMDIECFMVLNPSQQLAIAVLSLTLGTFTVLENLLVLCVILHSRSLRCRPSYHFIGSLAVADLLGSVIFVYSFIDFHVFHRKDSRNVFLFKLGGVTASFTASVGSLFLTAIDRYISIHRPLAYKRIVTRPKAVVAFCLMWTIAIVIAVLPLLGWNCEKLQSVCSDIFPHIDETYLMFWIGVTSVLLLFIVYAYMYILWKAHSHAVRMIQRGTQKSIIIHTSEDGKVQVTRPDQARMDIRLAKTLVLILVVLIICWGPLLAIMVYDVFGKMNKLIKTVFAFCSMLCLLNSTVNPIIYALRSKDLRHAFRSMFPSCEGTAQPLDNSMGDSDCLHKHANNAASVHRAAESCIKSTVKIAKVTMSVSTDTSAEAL
# ASSAY_INFO: Displacement of [3H]-CP55940 from human CB1 receptor expressed in HEK293 cells after 90 mins by liquid scintillation counting
# Type: cell-based
PROPERTY_MEASURED: EC50

Exercise: Assign EC50 to the following record: `CCNC(=O)c1c(NC(=O)C23CC4CC(CC(C4)C2)C3)sc2c1CCOC2`
Solution: > 1.5 nM

----------
# SYSTEM_TESTED: Cannabinoid receptor 2 (Homo sapiens)
# ASSAY_INFO: Agonist activity at human CB2 receptor expressed in human SK-N-MC cells by CRE-beta galactosidase reporter gene assay
# Assay type: functional, cell-based
Measured EC50 accompanies every entry in the list below.
Report the value in nM with no unit label.

C[C@H](NS(=O)(=O)/C=C/c1n[nH]c2c1CCCC[C@@H]2Cc1cccc(F)c1)c1ccccc1; 9

Next, consider the following molecule.
Exercise: Assign EC50 to the following record: `O=C(N[C@H](CO)c1ccccc1)c1n[nH]c2c1CCCC[C@H]2Cc1cccc(Cl)c1`
Solution: 12

----------
# SYSTEM_TESTED: Cannabinoid receptor 2 (Homo sapiens, UniProt P34972)
# ASSAY_INFO: Displacement of [3H]-CP55940 from human CB2 receptor expressed in CHO-K1 cells by liquid scintillation counting
# Assay type: cell-based
PROPERTY_MEASURED: pKi
In plain terms, pKi is the concentration in mol/L turned into minus its base-10 logarithm.

Exercise: Provide measured pKi on Cannabinoid receptor 2 (Homo sapiens, UniProt P34972) for `Cc1c2n(c(=O)c3cc(OC(=O)C(C)(C)C)cc(OC(=O)C(C)(C)C)c13)CCCC2` please.
Solution: 8.17

----------
# SYSTEM_TESTED: UniProtKB P21554
# ASSAY_INFO: Displacement of [3H]-CP55940 from human CB1 receptor by liquid scintillation counting in presence of serine protease inhibitor PMSF
PROPERTY_MEASURED: Ki (nM)
Report the value in nM with no unit label.

Exercise: Provide measured Ki on UniProtKB P21554 for `CCCCC/C=C\C/C=C\C/C=C\C/C=C\CCCC(=O)OCCN` please.
Solution: 912

----------
# SYSTEM_TESTED: UniProt Q9QZN9
# ASSAY_INFO: Displacement of [3H]Win55212-2 from CB2 receptor of rat spleen by liquid scintillation counting
PROPERTY_MEASURED: Ki (µM)
Report the value in µM with no unit label.

Exercise: Assign Ki to the following record: `CCCCC/C=C\C/C=C\C/C=C\C/C=C\CCCC(=O)NCCc1ccc(O)c(O)c1`
Solution: 10

----------
# Species: Homo sapiens
# ASSAY_INFO: Selectivity ratio of Ki for human CB1 receptor to Ki for human CB2 receptor
PROPERTY_MEASURED: Ratio Ki
Format: numeric value only, no unit, no commentary.

CCCCCCC(C)(C)c1cc(O)c([C@H]2CC(=O)[C@H]3C[C@@H]2C3(C)C)c(OC(=O)/C=C/C(=O)O)c1; 37

Exercise: Assign Ratio Ki to the following record: `CC1=CC[C@@H]2[C@@H](C1)c1c(OC(=O)CCCN3CCOCC3)cc(C(C)(C)CCCCC#N)cc1OC2(C)C`
Solution: 0.36

Exercise: Assign Ratio Ki to the following record: `COCCN1CC(C)(C)S/C1=N\C(=O)c1cc(Cl)ccc1OC`
Solution: 10

Exercise: Assign Ratio Ki to the following record: `CC(C)(C)NC(=O)c1nn(-c2ccc(F)cc2F)c2c1[C@H]1CC[C@@H]2C1`
Solution: 80

Exercise: Assign Ratio Ki to the following record: `CCCCCCC(C)(C)c1cc(O)c2c(c1)OC(C)(C)[C@@H]1CC=C(C)C[C@@H]21`
Solution: 1.7

Exercise: Assign Ratio Ki to the following record: `Cc1c2n(c(=O)c3cc(OC(=O)C(C)(C)C)cc(OC(=O)C(C)(C)C)c13)CCCC2`
Solution: 450

----------
Measured half-life accompanies every entry in the list below.
# ASSAY_INFO: Half life in Sprague-Dawley rat at 10 mg/kg, po by UV-HPLC analysis
# Format: ADME, organism-based
# Design: dose 10 mg/kg, route oral
# CONDITION_CONTEXT: in vivo
Report the value in h with no unit label.

Exercise: Assign half-life to the following record: CC(C)(CO)NC(=O)c1nn(-c2ccc(Cl)cc2)c2c1C1CCC2C1 (configuration not stated)
Solution: 4.8

Exercise: Assign half-life to the following record: CC(C)(C)NC(=O)c1nn(-c2ccc(Cl)cc2)c2c1C1CCC2C1 (configuration not stated)
Solution: 7.3

----------
# SYSTEM_TESTED: Transient receptor potential cation channel subfamily V member 1 (Homo sapiens)
# Sequence (Q8NER1 whole entry): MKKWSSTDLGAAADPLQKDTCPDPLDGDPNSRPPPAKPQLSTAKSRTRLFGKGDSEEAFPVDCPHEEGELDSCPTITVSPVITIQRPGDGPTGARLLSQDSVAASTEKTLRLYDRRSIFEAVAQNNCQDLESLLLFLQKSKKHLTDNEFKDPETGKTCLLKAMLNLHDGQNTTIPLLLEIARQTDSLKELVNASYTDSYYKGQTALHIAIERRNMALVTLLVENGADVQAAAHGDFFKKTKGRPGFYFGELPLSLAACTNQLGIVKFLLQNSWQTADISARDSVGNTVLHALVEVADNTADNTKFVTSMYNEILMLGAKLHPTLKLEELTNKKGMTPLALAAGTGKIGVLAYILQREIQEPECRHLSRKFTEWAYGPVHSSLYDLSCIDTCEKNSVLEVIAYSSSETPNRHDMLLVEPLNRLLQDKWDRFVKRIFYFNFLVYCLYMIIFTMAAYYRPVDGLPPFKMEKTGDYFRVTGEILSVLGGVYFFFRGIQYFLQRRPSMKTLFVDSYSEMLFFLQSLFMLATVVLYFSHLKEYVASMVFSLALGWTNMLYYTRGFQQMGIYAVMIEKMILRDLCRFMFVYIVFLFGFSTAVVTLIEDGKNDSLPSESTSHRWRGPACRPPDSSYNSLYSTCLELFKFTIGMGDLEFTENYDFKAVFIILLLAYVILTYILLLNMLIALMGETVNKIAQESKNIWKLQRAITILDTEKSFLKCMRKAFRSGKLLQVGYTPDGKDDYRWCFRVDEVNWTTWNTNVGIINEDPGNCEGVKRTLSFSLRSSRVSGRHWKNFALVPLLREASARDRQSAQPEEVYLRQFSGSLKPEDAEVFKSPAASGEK
# ASSAY_INFO: Activation of human VR1 expressed in HEK293 cells assessed as stimulation of Ca2+ influx
# Type: cell-based
PROPERTY_MEASURED: pEC50
In plain terms, pEC50 is the concentration in mol/L turned into minus its base-10 logarithm.

Exercise: Assign pEC50 to the following record: CCCCC/C=C\C/C=C\C/C=C\C/C=C\CCCC(=O)NCCO [ANANDAMIDE]
Solution: 6.20

----------
# SYSTEM_TESTED: Cannabinoid receptor 2 (Rattus norvegicus, UniProt Q9QZN9)
# Sequence (Q9QZN9 whole entry): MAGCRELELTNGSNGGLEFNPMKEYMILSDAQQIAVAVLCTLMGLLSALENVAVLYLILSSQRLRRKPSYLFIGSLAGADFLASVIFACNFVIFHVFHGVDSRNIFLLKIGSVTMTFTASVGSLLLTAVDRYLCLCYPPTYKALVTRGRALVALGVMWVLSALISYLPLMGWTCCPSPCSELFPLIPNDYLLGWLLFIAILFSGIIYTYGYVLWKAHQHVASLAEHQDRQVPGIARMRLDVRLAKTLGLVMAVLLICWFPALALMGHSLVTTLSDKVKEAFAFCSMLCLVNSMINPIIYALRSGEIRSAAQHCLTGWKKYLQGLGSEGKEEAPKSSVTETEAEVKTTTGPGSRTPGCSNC
# ASSAY_INFO: Displacement of [3H]-CP55940 from rat CB2 receptor by liquid scintillation spectrometry
pKi: −log10 of the molar value.
PROPERTY_MEASURED: pKi

Exercise: Assign pKi to the following record: `CCCCCCC(C)(C)c1cc(O)c2c(c1)OC(C)(C)[C@H]1CC=C(CO)C[C@H]21`
Solution: < 5.00

----------
# SYSTEM_TESTED: UniProt P34972
# ASSAY_INFO: Agonist activity at human CB2 receptor transfected in CHO-K1 cells assessed as cAMP change
# Type: functional, cell-based
PROPERTY_MEASURED: pEC50
In plain terms, pEC50 is the concentration in mol/L turned into minus its base-10 logarithm.

CCC(C)Cn1c(C(C)(C)C)nc2cc(S(=O)(=O)c3ccnc(F)c3)ccc21 (configuration not stated); 9.59

Next, consider the following molecule.
Exercise: Provide measured pEC50 on UniProt P34972 for CC1CN1S(=O)(=O)c1ccc2c(c1)C1(OCCCO1)C(=O)N2CC1CC1 (configuration not stated) please.
Solution: 8.70
